These measurements were taken from ChEMBL document CHEMBL1201862.

- Tested on: SNB-19
- experiment-notes: NCI tumour cell line growth inhibition, 48 h
Active and inactive are the calls of the source. Cut-off read from the data, not from the text of the source: active = GI50 up to about 1.1 µM and inactive = higher.
In this exercise, the only acceptable responses are active, inactive

[Q] Look up the recorded call for Oc1nc2nnc(COc3ccc(Cl)cc3Cl)n2nc1Cc1ccccc1 in this test.
[A] inactive

[Q] Look up the recorded call for O=C(CNCc1ccccc1)Oc1c(Cl)c(Cl)c(Cl)c(Cl)c1Cl in this test.
[A] inactive

[Q] Look up the recorded call for O=C1C2C3CCC(C2C(=O)N1CO)C1C2C(=O)N(CO)C(=O)C2C31 (centres undefined) in this test.
[A] inactive

[Q] Look up the recorded call for CC(O)=NC(Cc1ccc2ccccc2c1)C(O)=NC(Cc1ccc(Cl)cc1)C(O)=NC(Cc1c[nH]c2ccccc12)C(O)=NC(CO)C(O)=NC(Cc1ccc(O)cc1)C(O)=NC(CCCN=C(N)N)C(O)=NC(CC(C)C)C(O)=NC(CCCN=C(N)N)C(=O)N1CCCC1C(O)=NC(C)C(=N)O (centres undefined) in this test.
[A] inactive

[Q] Look up the recorded call for Cc1nc2cc(/N=N/c3c(C)noc3C)ccc2[nH]1 in this test.
[A] inactive

[Q] Look up the recorded call for CCCCCC(/C=C/[C@@H]1CC(=O)C[C@H]1O[Si](C)(C)C(C)(C)C)OCOCCOC (some centres undefined) in this test.
[A] inactive

[Q] Look up the recorded call for COc1ccc(C(=O)N=C2N(c3ccccc3)C(=N/c3ccccc3)/C(=N\c3ccccc3)N2c2ccccc2)cc1 in this test.
[A] inactive

[Q] Look up the recorded call for NC(=O)/C=C/c1c[nH]c2nccnc12 in this test.
[A] active

[Q] Look up the recorded call for Cc1ccc2c(C(=O)c3c(C)n(CCN4CCOCC4)c4ccccc34)cccc2c1 in this test.
[A] inactive
